Where these numbers come from: ChEMBL document CHEMBL1147134

Measurement record for Kappa-type opioid receptor (Cavia porcellus, UniProt P41144); quantity recorded: Ki.
One number for each entry, in nM.

{"Chem Smiles": "Oc1ccc2c3c1O[C@H]1c4[nH]c5ccccc5c4C[C@@]4(O)[C@@H](C2)N(CC2CC2)CC[C@]314", "Unit Name": "nM", "Ki": 14.9}
{"Chem Smiles": "O=C(O)CN1CCN(CCn2c3c(c4ccccc42)C[C@@]2(O)[C@H]4Cc5ccc(O)c6c5[C@@]2(CCN4CC2CC2)[C@@H]3O6)CCN(CC(=O)O)CCN(CC(=O)O)CC1", "Unit Name": "nM", "Ki": 2010}

Attention now shifts to the item below.
Query: Ki; subject: `O=C(O)CN1CCN(CCCCCn2c3c(c4ccccc42)C[C@@]2(O)[C@H]4Cc5ccc(O)c6c5[C@@]2(CCN4CC2CC2)[C@@H]3O6)CCN(CC(=O)O)CCN(CC(=O)O)CC1` 26.2

----------
What Ki was measured for each of the following?
# Study Target: Delta-type opioid receptor (Mus musculus)
# Sequence (P32300 whole entry): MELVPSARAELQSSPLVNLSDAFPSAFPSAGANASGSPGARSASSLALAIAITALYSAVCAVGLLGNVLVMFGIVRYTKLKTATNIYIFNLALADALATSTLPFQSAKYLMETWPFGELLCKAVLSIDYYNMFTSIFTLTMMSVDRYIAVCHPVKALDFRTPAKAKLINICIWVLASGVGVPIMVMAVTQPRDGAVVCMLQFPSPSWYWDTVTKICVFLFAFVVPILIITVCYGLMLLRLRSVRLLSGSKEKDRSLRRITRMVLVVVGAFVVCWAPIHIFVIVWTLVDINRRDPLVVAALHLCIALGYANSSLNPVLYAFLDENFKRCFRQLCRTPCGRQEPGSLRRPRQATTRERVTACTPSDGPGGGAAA
# Assay Explanation: Displacement of [3H]NTI from delta opioid receptor in CD1 mouse brain membranes
# Type: cell membranes, Membrane
Give your result as the value with the unit written after it.

{"Chem Smiles": "O=C(O)CN1CCN(CCCCCn2c3c(c4ccccc42)C[C@@]2(O)[C@H]4Cc5ccc(O)c6c5[C@@]2(CCN4CC2CC2)[C@@H]3O6)CCN(CC(=O)O)CCN(CC(=O)O)CC1", "Ki": "0.2 nM"}

Query: Ki; subject: `O=C(O)CN1CCN(CCn2c3c(c4ccccc42)C[C@@]2(O)[C@H]4Cc5ccc(O)c6c5[C@@]2(CCN4CC2CC2)[C@@H]3O6)CCN(CC(=O)O)CCN(CC(=O)O)CC1` 4.9 nM

----------
# Assay Explanation: Lipophilicity, log D at pH7.4
# Format: physicochemical
# Condition: buffer, pH 7.4
Measurement Type: logD
Give bare numbers.

Query: logD; subject: Oc1ccc2c3c1O[C@H]1c4[nH]c5ccccc5c4C[C@@]4(O)[C@@H](C2)N(CC2CC2)CC[C@]314 [NALTRINDOLE] 2.41

----------
Measurement record for Mu-type opioid receptor (Cavia porcellus, UniProt P97266); quantity recorded: Ki.
Give bare numbers, in nM.

{"Compound": "O=C(O)CN1CCN(CCCCCn2c3c(c4ccccc42)C[C@@]2(O)[C@H]4Cc5ccc(O)c6c5[C@@]2(CCN4CC2CC2)[C@@H]3O6)CCN(CC(=O)O)CCN(CC(=O)O)CC1", "Ki / nM": 48.2}

Give Ki for each listed item.
1. O=C(O)CN1CCN(CCn2c3c(c4ccccc42)C[C@@]2(O)[C@H]4Cc5ccc(O)c6c5[C@@]2(CCN4CC2CC2)[C@@H]3O6)CCN(CC(=O)O)CCN(CC(=O)O)CC1
2. Oc1ccc2c3c1O[C@H]1c4[nH]c5ccccc5c4C[C@@]4(O)[C@@H](C2)N(CC2CC2)CC[C@]314 [NALTRINDOLE]

1. 1750
2. 33.9
